Reported Emax values for a set of compounds
- Tested target: human F508del-CFTR (Homo sapiens, UniProt P13569, DEL508-508)
- Sequence (P13569 with tags, fused parts or gaps DEL508-508): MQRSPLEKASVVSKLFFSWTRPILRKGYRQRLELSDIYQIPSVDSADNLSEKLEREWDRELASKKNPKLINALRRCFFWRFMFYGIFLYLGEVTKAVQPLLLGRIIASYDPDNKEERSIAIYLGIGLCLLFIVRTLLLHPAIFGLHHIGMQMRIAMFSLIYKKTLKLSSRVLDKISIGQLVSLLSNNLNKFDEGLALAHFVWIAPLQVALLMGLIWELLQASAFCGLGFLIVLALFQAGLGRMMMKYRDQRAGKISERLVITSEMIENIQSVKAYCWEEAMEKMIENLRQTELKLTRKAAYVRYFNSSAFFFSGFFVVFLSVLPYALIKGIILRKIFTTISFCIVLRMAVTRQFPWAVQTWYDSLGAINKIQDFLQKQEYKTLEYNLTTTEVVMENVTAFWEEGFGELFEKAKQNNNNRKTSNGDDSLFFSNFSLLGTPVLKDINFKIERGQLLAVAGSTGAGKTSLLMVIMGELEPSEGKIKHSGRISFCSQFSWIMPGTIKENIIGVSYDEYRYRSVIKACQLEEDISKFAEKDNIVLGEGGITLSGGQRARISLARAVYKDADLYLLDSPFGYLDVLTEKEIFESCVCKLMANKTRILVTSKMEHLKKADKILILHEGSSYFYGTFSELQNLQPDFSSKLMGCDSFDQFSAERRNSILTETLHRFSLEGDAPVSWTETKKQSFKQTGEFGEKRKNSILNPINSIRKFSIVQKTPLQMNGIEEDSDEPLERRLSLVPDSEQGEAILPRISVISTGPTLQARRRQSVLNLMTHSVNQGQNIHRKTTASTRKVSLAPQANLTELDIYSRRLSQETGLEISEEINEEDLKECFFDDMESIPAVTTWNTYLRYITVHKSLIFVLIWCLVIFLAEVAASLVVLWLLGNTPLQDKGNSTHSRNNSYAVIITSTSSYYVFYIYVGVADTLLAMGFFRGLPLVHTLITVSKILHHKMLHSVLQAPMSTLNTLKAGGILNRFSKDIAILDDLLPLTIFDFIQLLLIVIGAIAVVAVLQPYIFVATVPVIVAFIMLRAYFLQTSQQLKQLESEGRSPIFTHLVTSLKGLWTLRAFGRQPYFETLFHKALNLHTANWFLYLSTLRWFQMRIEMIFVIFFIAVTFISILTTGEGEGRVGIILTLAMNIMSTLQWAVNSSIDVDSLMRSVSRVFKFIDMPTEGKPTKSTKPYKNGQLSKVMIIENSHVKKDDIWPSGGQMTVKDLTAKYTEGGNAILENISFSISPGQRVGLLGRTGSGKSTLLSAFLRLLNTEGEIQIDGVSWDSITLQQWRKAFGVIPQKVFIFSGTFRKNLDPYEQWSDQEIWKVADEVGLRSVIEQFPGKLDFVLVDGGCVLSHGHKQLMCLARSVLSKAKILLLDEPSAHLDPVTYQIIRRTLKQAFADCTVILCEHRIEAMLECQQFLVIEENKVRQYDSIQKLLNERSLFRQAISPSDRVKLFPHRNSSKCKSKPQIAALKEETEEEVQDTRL
- Assay name: F508del-CFTR cell surface expression (corrector activity), DiscoveRx ß-galactosidase complementation chemiluminescence assay in recombinant U2OS cell line
- Stated conditions: U2OS, in relation to Emax of corrector lumacaftor (=100%); arithmetic mean values
Assay endpoint: Emax (%)

1. CC(C)C[C@H]1C(=O)N2CCCC[C@H]2C(=O)N[C@H](Cc2ccccc2)COc2ccncc2C(=O)N[C@H](C(=O)NCCc2ccc3c(c2)OCC3)CC(=O)N1C [Example 592]
119
2. CC[C@@H]1C(=O)N[C@H](Cc2ccccc2)COc2cc(C)nc(OC)c2C(=O)N[C@H](C(=O)NCCc2cc(OC)no2)CC(=O)N(C)[C@@H](CC(C)C)C(=O)N1C [Example 784]
391
3. CC(C)C[C@H]1C(=O)N(CC2COc3ccccc3C2)CC(=O)N[C@H](Cc2ccccc2)COc2ccc3ccccc3c2C(=O)N[C@H](C(=O)NCCc2ccc3c(c2)OCO3)CC(=O)N1C (stereo partly shown) [Example 700]
186
4. Cc1cc(CCNC(=O)[C@@H]2CC(=O)N(C)[C@@H](CC(C)C)C(=O)N(C)[C@@H](Cc3cccc4ccccc34)C(=O)N[C@H](Cc3ccccc3)COc3cnc4ccccc4c3C(=O)N2)on1 [Example 695]
237
5. CC(C)C[C@H]1C(=O)N2CCCC[C@H]2C(=O)N[C@H](Cc2ccccc2)COc2cnc3ccc(F)cc3c2C(=O)N[C@H](C(=O)NCCc2nc(C3CC3)no2)CC(=O)N1C [Example 521]
191
6. Cc1nc2ccc3c(c2o1)C(=O)N[C@H](C(=O)NCCc1nc2c(s1)CCC2)CC(=O)N(C)[C@@H](CC(C)C)C(=O)N1CCN(C2CC2)C[C@@H]1C(=O)N[C@H](Cc1ccccc1)CO3 [Example 420]
231
7. Cc1cc(CCNC(=O)[C@@H]2CC(=O)N(C)[C@@H](CC(C)C)C(=O)N3CCN(S(=O)(=O)c4cccc(OC(F)(F)F)c4)C[C@@H]3C(=O)N[C@H](Cc3ccccc3)COc3cnc4ccccc4c3C(=O)N2)on1 [Example 749]
301
8. [2H]C([2H])([2H])Oc1nc(C)cc2c1C(=O)N[C@H](C(=O)NCCc1cnn(C3CC3)n1)CC(=O)N(C)[C@@H](CC(C)C)C(=O)N1CCCC[C@@H]1C(=O)N[C@H](Cc1ccccc1)CO2 [Example 685]
234
9. COc1cccc(CCNC(=O)[C@@H]2CC(=O)N(C)[C@@H](CC(C)C)C(=O)N(C)C3(CC3)C(=O)N[C@H](Cc3ccccc3)COc3ccc4nc(C)oc4c3C(=O)N2)c1 [Example 628]
355
10. CC(C)C[C@H]1C(=O)N2CCCC[C@@H]2C(=O)N[C@H](Cc2ccccc2)COc2cnc3ccccc3c2C(=O)N[C@H](C(=O)NCCc2cc(C(F)(F)F)no2)CC(=O)N1C [Example 559]
236

* * *

- Tested target: human F508del-CFTR (Homo sapiens, UniProt P13569, DEL508-508)
- Assay name: F508del-CFTR cell surface expression (corrector activity), DiscoveRx ß-galactosidase complementation chemiluminescence assay in recombinant U2OS cell line
- Stated conditions: EC50, F508del-CFTR cell surface expression, U2OS cell line, 16h compound incubation; geomean values
Listed molecules paired with reported EC50
Assay endpoint: EC50

1. CC(C)C[C@H]1C(=O)N2CCOC[C@@H]2C(=O)N[C@H](Cc2ccccc2)COc2cnc3ccccc3c2C(=O)N[C@H](C(=O)NCCc2ccc(Br)cc2)CC(=O)N1C [Example 49]
347 nM
2. CC(C)C[C@H]1C(=O)N(CCC2CCOCC2)CC(=O)N[C@H](Cc2ccccc2)COc2cc3c(cc2C(=O)N[C@H](C(=O)NCCc2ccc4c(c2)OCO4)CC(=O)N1C)OCO3 [Example 154]
398 nM
3. Cc1ccc(CCNC(=O)[C@@H]2CC(=O)N(C)[C@@H](CC(C)C)C(=O)N3CCOC[C@@H]3C(=O)N[C@H](Cc3ccccc3)COc3cnc4ccccc4c3C(=O)N2)c(C)c1 [Example 63]
418 nM
4. CN1C(=O)C[C@@H](C(=O)NCCc2ccc3c(c2)OCO3)NC(=O)c2c(ccc3ccccc23)OC[C@@H](Cc2ccccc2)NC(=O)CN(CCC2CCCCC2)C(=O)[C@@H]1CC1CCC1 (mixture of isomers) [Example 292]
114 nM
5. COc1cc(CCNC(=O)[C@@H]2CC(=O)N(C)[C@@H](CC(C)C)C(=O)N3CCCC[C@@H]3C(=O)N[C@H](Cc3ccccc3)COc3cnc4ccccc4c3C(=O)N2)cc(OC)c1 [Example 71]
338 nM
6. CC(C)C[C@H]1C(=O)N2CCN(C3CC3)C[C@H]2C(=O)N[C@H](Cc2ccccc2)COc2cnc3ccccc3c2C(=O)N[C@H](C(=O)NCCc2ccc3c(c2)OCO3)CC(=O)N1C [Example 392]
327 nM
7. CCOc1cccc2c1C(=O)N[C@H](C(=O)NCCc1ccc3c(c1)OCCO3)CC(=O)N(C)[C@@H](CC(C)C)C(=O)C1CCC[C@@H](N1)C(=O)N[C@H](Cc1ccccc1)CO2 [Example 283]
272 nM
8. Cc1cc(CCNC(=O)[C@@H]2CC(=O)N(C)[C@@H](CC(C)C)C(=O)N3CCCC[C@@H]3C(=O)N[C@H](Cc3ccccc3)COc3cnc4ccccc4c3C(=O)N2)no1 [Example 98]
311 nM
9. CC(C)C[C@H]1C(=O)N(CCC2CCCOC2)CC(=O)N[C@H](Cc2ccccc2)COc2ccc3ccccc3c2C(=O)N[C@H](C(=O)NCCc2ccc3c(c2)OCO3)CC(=O)N1C (some centres unmarked) [Example 333]
345 nM
10. COc1cccc(CCNC(=O)[C@@H]2CC(=O)N(C)[C@@H](CC(C)C)C(=O)N(CCC3CCCCC3)CC(=O)N[C@H](Cc3ccccc3)COc3ccc4c(c3C(=O)N2)OCO4)c1 [Example 346]
106 nM
11. CC(C)C[C@H]1C(=O)N(CCC2CCCO2)CC(=O)N[C@H](Cc2ccccc2)COc2ccc3ccccc3c2C(=O)N[C@H](C(=O)NCCc2ccc3c(c2)OCO3)CC(=O)N1C (some centres unmarked) [Example 332]
309 nM
12. COc1ccc2c(c1)C(=O)N[C@H](C(=O)NCCc1ccc3c(c1)OCCC3)CC(=O)N(C)[C@@H](CC(C)C)C(=O)N(C)CC(=O)N[C@H](Cc1ccccc1)CO2 [Example 245]
260 nM
13. COc1cc(CCNC(=O)[C@@H]2CC(=O)N(C)[C@@H](CC(C)C)C(=O)N3CCOC[C@@H]3C(=O)N[C@H](Cc3ccccc3)COc3cnc4ccccc4c3C(=O)N2)cc(OC)c1 [Example 57]
414 nM
14. CC(C)C[C@H]1C(=O)N(C)C2(CC2)C(=O)N[C@H](Cc2ccccc2)COc2cnc3ccc(F)cc3c2C(=O)N[C@H](C(=O)NCCn2cc(C3CC3)cn2)CC(=O)N1C [Example 172]
324 nM
15. COc1cccc(CCNC(=O)[C@@H]2CC(=O)N(C)[C@@H](CC(C)C)C(=O)N(C)CC(=O)N[C@H](Cc3ccccc3)COc3cc(OC)c(OC)cc3C(=O)N2)c1 [Example 195]
889 nM
16. COc1cc(CCNC(=O)[C@@H]2CC(=O)N(C)[C@@H](CC(C)C)C(=O)N3CCCC[C@@H]3C(=O)N[C@H](Cc3ccccc3)COc3cnc4ccccc4c3C(=O)N2)ccc1-n1nccn1 [Example 93]
777 nM
17. COc1cccc(CCNC(=O)[C@@H]2CC(=O)N(C)[C@@H](CC(C)C)C(=O)N(C[C@@H]3CCCCO3)CC(=O)N[C@H](Cc3ccccc3)COc3ccc4ccccc4c3C(=O)N2)c1 (racemic) [Example 165]
287 nM
18. CC(C)C[C@H]1C(=O)N2CCOC[C@@H]2C(=O)N[C@H](Cc2ccccc2)COc2cnc3ccccc3c2C(=O)N[C@H](C(=O)NCCc2ccccc2)CC(=O)N1C [Example 58]
759 nM
19. COc1cccc(CCNC(=O)[C@@H]2CC(=O)N(C)[C@@H](CC(C)C)C(=O)N3CCN(C4CC4)C[C@@H]3C(=O)N[C@H](Cc3ccccc3)COc3ccc4ccccc4c3C(=O)N2)c1 [Example 356]
167 nM
20. CN1C(=O)C[C@@H](C(=O)NCCc2ccc3c(c2)OCO3)NC(=O)c2c(ccc3ccccc23)OC[C@@H](Cc2ccccc2)NC(=O)CN(C[C@H]2CCCCO2)C(=O)[C@@H]1CC1CCCCC1 (racemic) [Example 287]
207 nM

* * *

- Tested target: human F508del-CFTR (Homo sapiens, UniProt P13569, DEL508-508)
- Assay name: F508del-CFTR cell surface expression (corrector activity), DiscoveRx ß-galactosidase complementation chemiluminescence assay in recombinant U2OS cell line;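 note: U2OS cells co-expressing ProLink-tagged F508del-CFTR and a membrane-anchored enzyme acceptor, where more surface CFTR restores β-galactosidase activity measured by chemiluminescence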
- Stated conditions: EC50, F508del-CFTR cell surface expression, U2OS cells, 16h compound incubation; geomean of several measurements
Sorting guide: entries reporting EC50 beneath 0.2 µM go in the TRUE pile, the rest go in the FALSE pile.

1. Cc1cc2c(c3cccnc13)C(=O)N[C@H](C(=O)NCCc1nc(C3CC3)no1)CC(=O)N(C)[C@@H](CC(C)C)C(=O)N(C)[C@H](Cc1nc(C(F)(F)F)no1)C(=O)N[C@H](Cc1ccccc1)CO2
TRUE
2. COc1nc(C)cc2c1C(=O)N[C@H](C(=O)NCCc1cc(C)no1)CC(=O)N(C)[C@@H](CC(C)C)C(=O)N(C)[C@H](CC(C)(C)C)C(=O)N[C@H](Cc1ccccc1)CO2
TRUE
3. COc1noc(CCNC(=O)[C@@H]2CC(=O)N(C)[C@@H](CC(C)C)C(=O)N(C)[C@@H](CC(F)(F)F)C(=O)N[C@H](Cc3ccccc3)COc3ccc4ncc(F)cc4c3C(=O)N2)n1
FALSE
4. CC(C)C[C@H]1C(=O)N(C)[C@H](Cc2nc(-c3ccc(F)cn3)no2)C(=O)N[C@H](Cc2ccccc2)COc2cnc3ccc(F)cc3c2C(=O)N[C@H](C(=O)NCCn2nc3ccccc3n2)CC(=O)N1C
TRUE
